- Run Conditions: in isopropanol, 308.15 K
Metric: solubility (mole fraction)

INSERT INTO results (compound, experimental_result) VALUES
  ('CCc1cccc2c3c([nH]c12)C(CC)(CC(=O)O)OCC3 (stereo unspecified)', 0.078);

====

- Run Conditions: in dichloromethane, 293.15 K
Metric: solubility (mole fraction)

INSERT INTO measurements (compound, experimental_result) VALUES
  ('CCc1cccc2c3c([nH]c12)C(CC)(CC(=O)O)OCC3 (stereo unspecified)', 0.019);

====

- Run Conditions: in isobutyl acetate, 318.15 K
Metric: solubility (mole fraction)

INSERT INTO assay_data (compound, metric, experimental_result) VALUES
  ('CCc1cccc2c3c([nH]c12)C(CC)(CC(=O)O)OCC3 (stereo unspecified)', 'solubility (mole fraction)', 0.0959);
